- System: A498 complex spheroids with HUVEC/MSC, growth
- METHOD_SUMMARY: Anticancer human tumor A498 cell line growth inhibition [AhR]; active = viability on the fitted dose curve at most 10% of control; inactive = the rest;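 also: luminescence signal used as a surrogate for viable cells; seven day exposure starting three days after spheroid seeding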
- MEASUREMENT_CONDITIONS: second compound 0.1 µM; first compound 0.0949 µM
A correct response names exactly one class from Y (active), N (inactive)

Some entries whose results are on file:
[
  {
    "COMPOUND": "CCN(c1cc(-c2ccc(CN3CCOCC3)cc2)cc(C(=O)NCc2c(C)cc(C)[nH]c2=O)c1C)C1CCOCC1 + CC(CO)NC(=O)c1cc(-c2ccc(Cl)cc2)nn(-c2cnn(C)c2)c1=O",
    "LABEL": "N"
  },
  {
    "COMPOUND": "CCc1c2c(nc3ccc(O)cc13)-c1cc3c(c(=O)n1C2)COC(=O)[C@]3(O)CC + Cc1ccccc1N=Nc1ccc(NC(=O)c2ccnn2C)c(C)c1",
    "LABEL": "N"
  },
  {
    "COMPOUND": "O=C(C=Cn1cnc(-c2cc(C(F)(F)F)cc(C(F)(F)F)c2)n1)NNc1cnccn1 + CC(CO)NC(=O)c1cc(-c2ccc(Cl)cc2)nn(-c2cnn(C)c2)c1=O",
    "LABEL": "N"
  },
  {
    "COMPOUND": "CC(C)CC(NC(=O)C(Cc1ccccc1)NC(=O)c1cnccn1)B(O)O (stereo unspecified) + Cc1cncc(-c2nc(NCCc3c[nH]c4ccccc34)c3ncn(C(C)C)c3n2)c1",
    "LABEL": "Y"
  },
  {
    "COMPOUND": "Nc1ncn(C2CC(O)C(CO)S2)c(=O)n1 (stereo unspecified) + CC(CO)NC(=O)c1cc(-c2ccc(Cl)cc2)nn(-c2cnn(C)c2)c1=O",
    "LABEL": "N"
  }
]

--- query ---
Given O=C(C=Cn1cnc(-c2cc(C(F)(F)F)cc(C(F)(F)F)c2)n1)NNc1cnccn1 + Cc1ccccc1N=Nc1ccc(NC(=O)c2ccnn2C)c(C)c1 , state the outcome it received in this test.
N
